Biological target: Short transient receptor potential channel 6 (Mus musculus)
Test: activation of mouse TRPC6 channel, confirmation, selectivity assay for TRPC4 activator project, cell-based, HEK293, membrane potential dye, duplicate (AID 434950);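 for activation: 0% = buffer only wells and 100% = acetylcholine maximal-effect wells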
Details: HEK293 TRPC6, membrane potential fluorescence, at 10 µM; hits give high values
The source made the active and inactive calls.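 Rule for the calls: active = membrane potential signal rise above negative control mean plus 3 SD in both duplicates, also active in the earlier TRPC4 screen; inactive = the rest.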
Measured quantity: activation

Past entries and their recorded results:
| Compound | activation |
| --- | --- |
| O=C(NCCCN1CCN(CCCNC(=O)c2ccc3c(c2)OCO3)CC1)c1ccc2c(c1)OCO2 | inactive |
| CN(C)CCCN(C(=O)c1ccc(S(=O)(=O)N(C)C2CCCCC2)cc1)c1nc2ccc(F)cc2s1 | inactive |
| Cc1cccc(C(=O)NC(=S)NNC(=O)c2cccs2)c1 | 34.5% (active) |
| CN1CCC(CNC(=O)Nc2ccccc2)(c2ccccc2)CC1 | inactive |
| OC(CNC1CCCc2ccccc21)COc1c(Cl)cccc1Cl (stereo not drawn) | 101% (active) |

Attention now turns to another entry.
// activation value for `O=C(CCc1ccccc1)NNC(=S)NC(=O)c1ccc(Cl)cc1` : 30% (active)
